Tested on: SK-MEL-2
Experimental details: NCI tumour cell line growth inhibition, 48 h
The source made the active and inactive calls. Cut-off read from the data, not from the text of the source: active = GI50 up to about 1.1 µM and inactive = higher.
// classify into 1.0 = active, 0.0 = inactive

[
  {
    "Molecule": "COc1cc(/C=C(\\C#N)c2nc3ccccc3o2)ccc1O",
    "System under test": "SK-MEL-2",
    "Class assignment": 0.0
  },
  {
    "Molecule": "CCOC(=O)C(C(=O)OCC)P(=S)(S)c1ccccc1 (configuration not stated)",
    "System under test": "SK-MEL-2",
    "Class assignment": 0.0
  },
  {
    "Molecule": "c1cc2c(s1)-c1sccc1C21OCCO1",
    "System under test": "SK-MEL-2",
    "Class assignment": 0.0
  },
  {
    "Molecule": "CC(=O)c1ccc(NCN2C(=O)c3ccccc3C2=O)cc1",
    "System under test": "SK-MEL-2",
    "Class assignment": 0.0
  },
  {
    "Molecule": "CCOP(=O)(O)CN1CCNCCN(CP(=O)(O)OCC)CCNCC1",
    "System under test": "SK-MEL-2",
    "Class assignment": 0.0
  },
  {
    "Molecule": "C=C(CN(C)C)C(=O)c1ccccc1OC",
    "System under test": "SK-MEL-2",
    "Class assignment": 0.0
  }
]

Called result for NC(CCCCCP(=O)(O)O)C(=O)O (configuration not stated)
0.0

Called result for "CN1/C(=C\N=O)C(C)(C)N(O)C1(C)C"
0.0

Called result for "O=C(CCC(=O)Nc1cccc(Cl)c1)CC(=O)c1ccc(F)cc1"
0.0

Called result for "CC1=CC2=C(C)C3(CC3)[C@@](C)(O)C(=O)C2=C1"
1.0

Called result for CC[C@@H]1OC2(C)CC(S(=O)(=O)c3ccccc3)CC1O2 (some centres not stated)
0.0

Called result for "Cn1c2c(c3ccccc31)CCN(CCCCN1CCN(c3ccccc3)CC1)C2=O"
0.0

###

Tested on: CCRF-CEM
Experimental details: NCI tumour cell line growth inhibition, 48 h
Active and inactive are the calls of the source. Cut-off read from the data, not from the text of the source: active = GI50 up to about 1.1 µM and inactive = higher.
// classify into active, inactive

Sample answers from the record:
[
  {
    "Molecule": "COc1cc(Nc2n[nH]c(NS(=O)(=O)c3cc(C)c(Cl)cc3S)n2)cc(OC)c1OC",
    "System under test": "CCRF-CEM",
    "Class assignment": "inactive"
  },
  {
    "Molecule": "O=C(NCCCCNCCCNC(=O)C(F)(F)F)C(F)(F)F",
    "System under test": "CCRF-CEM",
    "Class assignment": "inactive"
  },
  {
    "Molecule": "CC(=O)N(C(C)=O)c1c(N)n(C)c(=O)[nH]c1=O",
    "System under test": "CCRF-CEM",
    "Class assignment": "inactive"
  }
]

Called result for "O=C(O)COc1ccc(C(=O)/C(SS/C(C(=O)c2ccc(OCC(=O)O)c(Cl)c2Cl)=C2\C=C(c3ccc(Br)cc3)SS2)=C2/C=C(c3ccc(Br)cc3)SS2)c(Cl)c1Cl"
inactive

Called result for CC(=O)OCC1OC(NC(=O)N(CCCl)N=O)C(OC(C)=O)C(OC(C)=O)C1OC(C)=O (centres undefined)
inactive

Called result for "O=C1CCc2ccc3c(c21)CC1(Cc2ccccc2C1)C3"
inactive

Called result for "CC(C)(O)[C@H](CCO)O[Si](c1ccccc1)(c1ccccc1)C(C)(C)C"
inactive

Called result for "CN(C)CCNC(=O)c1cccc2ccc(-c3ccc(Br)cc3)nc12"
active

Called result for "COC(=O)[C@@H]1C[C@]2(Br)c3ccccc3N(S(=O)(=O)c3ccccc3)[C@@H]2N1C(=O)OC"
inactive
